target: Neuromedin-K receptor (Rattus norvegicus, UniProt P16177); test: In vitro agonistic activity against tachykinin receptor 3 of everted rat protal vein.
Sequence (P16177 whole entry): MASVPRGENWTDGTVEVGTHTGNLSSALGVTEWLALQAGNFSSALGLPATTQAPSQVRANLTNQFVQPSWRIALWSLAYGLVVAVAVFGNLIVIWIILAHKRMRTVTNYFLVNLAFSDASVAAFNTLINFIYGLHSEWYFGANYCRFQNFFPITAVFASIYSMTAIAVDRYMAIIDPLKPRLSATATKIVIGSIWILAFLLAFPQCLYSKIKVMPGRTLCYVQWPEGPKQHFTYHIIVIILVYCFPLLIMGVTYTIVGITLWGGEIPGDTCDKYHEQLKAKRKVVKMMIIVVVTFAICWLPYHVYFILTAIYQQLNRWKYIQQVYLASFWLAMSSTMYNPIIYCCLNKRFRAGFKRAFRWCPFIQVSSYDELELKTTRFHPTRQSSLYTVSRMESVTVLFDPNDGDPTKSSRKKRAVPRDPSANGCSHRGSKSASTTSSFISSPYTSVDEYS
Non-standard residues stand in square brackets, D forms with d. Residues, ends and D or L forms follow the SMILES beside them. Ava = NCCCCC(=O)O
readoutLabel: EC50 (nM)

CSCC[C@H](NC(=O)[C@H](CC(C)C)NC(=O)CNC(=O)[C@@H](NC(=O)[C@H](Cc1ccccc1)NC(=O)[C@H](CO)NC(=O)[C@H](CC(=O)O)NC(=O)[C@@H](NC(=O)[C@H](CCCCN)NC(=O)[C@@H](N)Cc1cnc[nH]1)[C@@H](C)O)C(C)C)C(N)=O ... 563

[1] CSCC[C@H](NC(=O)[C@H](CC(C)C)NC(=O)CNC(=O)[C@H](Cc1ccccc1)NC(=O)[C@H](Cc1ccccc1)NC(=O)CCCCN)C(N)=O (H-[Ava]FFGLM-NH2)
[2] CSCC[C@H](NC(=O)[C@H](CC(C)C)NC(=O)CNC(=O)[C@@H](NC(=O)[C@H](Cc1ccccc1)NC(=O)[C@H](Cc1ccccc1)NC(=O)[C@H](CC(=O)O)NC(=O)[C@H](Cc1c[nH]cn1)NC(=O)[C@H](CCSC)NC(=O)[C@@H](N)CC(=O)O)C(C)C)C(N)=O
Short answer wanted: higher EC50, 1 or 2 ? Indicate which entry you chose by stating its label.
1
